Measured pIC50 of individual entries
# System: RIPK2 enzyme (Homo sapiens, UniProt O43353)
# Construct: purchased Carna 09-128
# Sequence (O43353 1-299 limits assumed): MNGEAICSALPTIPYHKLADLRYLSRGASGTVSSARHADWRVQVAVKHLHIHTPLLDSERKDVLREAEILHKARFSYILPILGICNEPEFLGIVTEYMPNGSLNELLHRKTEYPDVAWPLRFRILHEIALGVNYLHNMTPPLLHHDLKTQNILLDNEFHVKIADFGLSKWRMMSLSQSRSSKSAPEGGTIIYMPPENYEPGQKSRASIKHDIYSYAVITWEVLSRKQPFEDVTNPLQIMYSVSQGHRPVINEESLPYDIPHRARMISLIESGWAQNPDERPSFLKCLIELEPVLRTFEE
# Experiment summary: RIPK2 inhibition (ADP-Glo Kinase Assay)
# Format: biochemical
# Settings: RIPK2 5 nM, ATP 150 μM, MBP substrate, read-out: RIPK2 IC50
pIC50: −log10 of the molar value.

// solved cases for pIC50 follow
- Compound: "Cc1cc(CC(=O)Nc2cnn(C(C)(C)C)c2)c(F)cc1Oc1ccnc2ccc(C(=O)N3CCNCC3)cc12"
  Measured result: "> 8.60"
- Compound: "Cc1c(Oc2ccnc3ccc(C(=O)NC4CC(C#N)C4)cc23)ccc(CC(=O)Nc2cnn(C(C)(C)C)c2)c1F (single isomer, unassigned) [Compound 403]"
  Measured result: "> 8.60"
- Compound: "Cc1c(Oc2ccnc3ccc(C(O)CO)cc23)ccc(CC(=O)Nc2cnn(C(C)(C)C)c2)c1F (centres unmarked)"
  Measured result: "> 8.60"

Let's switch to this compound now.
Write down the reported pIC50 of Cc1cc(CC(=O)Nc2noc(C(C)(C)C)n2)ccc1Oc1ccnc2ccc(S(C)(=O)=O)cc12 , test system: RIPK2 enzyme (Homo sapiens, UniProt O43353). > 8.60
